Values were extracted from PubChem BioAssay (NCI).

- Tested on: 786-0 renal
- experimental_protocol: NCI-60 one-dose screen, 48 h
- protocol_conditions: 10 µM unless noted
Compounds without any hit were thinned out: in the full panel of roughly 83,000, 20% have a hit. The source made the active and inactive calls. The calls were made as follows: active = growth percent below 10; inactive = the rest.
Outcomes: active, inactive

molecule | class_label
O=C1CC(=NCC(=O)n2c(-c3ccccc3)nc3ccccc32)NN1 | inactive
CS(=O)(=O)c1ccc(-n2nc(-c3ccc(Br)cc3)c3ccccc3c2=O)cc1 | inactive
COc1ccc(-n2nc(C)c3c(Oc4ccc(NC(=O)Nc5c(Cl)cccc5Cl)cc4)ncnc32)cc1 | inactive
COc1cc2c(cc1-c1c(C)noc1C)ncc1nc(C3CCCC3)n([C@H](C)COC(F)F)c12 | inactive
CCOC(=O)n1cc(-c2nonc2-c2cn(C)c3ncccc23)c2cc(F)ccc21 | inactive
O=C1Nc2ccc(Br)cc2C12Oc1ccccc1C1CC(c3ccc(F)cc3)=NN12 (stereo unspecified) | inactive
c1ccc(-c2cc3n4c(-c5ccccc5)nn(-c5ccccc5)c4cnc-3n2)cc1 | inactive
CN1CCN(c2ccc3nc(-c4ccc(OCCCCN5CCN(CCCCN6C(=O)c7cccc8cccc(c78)C6=O)CC5)cc4)[nH]c3c2)CC1 | inactive
CCN(CC)S(=O)(=O)c1ccc(OC)c(NC(=O)c2[nH]c(C)c3c2CCCCC3=O)c1 | inactive
Cc1cc(N2CCCCCC2)nc(NC2CCCC(Nc3ccnc4cc(Cl)ccc34)C2)n1 (stereo unspecified) | active
COc1ccc2c(c1)C(=O)/C(=C/c1cccnc1)CC2 | inactive

----------
- Tested on: SF-539 CNS
- experimental_protocol: NCI-60 one-dose screen, 48 h (100 = growth as untreated, 0 = no growth, -100 = all killed)
- protocol_conditions: 10 µM unless noted
About 83,000 compounds went through this panel and 20% of them were active in at least one assay; those are over-represented in the sample as a whole.
Reported growth values for the following compounds.

smiles_code | growth / %
O=C1/C(=C/c2ccccc2O)N=C2SCCCN12 | 95.4
O=C(Oc1cccnc1)c1ccsc1Nc1ccnc(C(F)(F)F)c1 | 99.9
C=C(C)C(=O)Nc1ccc(NC(C)C)cc1 | 100

----------
- Test system: HCC-2998 colon
- experimental_protocol: NCI-60 one-dose screen, 48 h
- protocol_conditions: 10 µM unless noted
This is part of a sample that, as a whole, favours compounds with a hit. Of some 83,000 tested, about 20% had one in any assay. Activity calls are given as the source filed them. How the source made its calls: active means growth percent below 10; inactive means the rest.
Labels: Yes = active, No = inactive

compound | class_label
COc1cccc(-c2nc3sccn3c2-c2ccnc(NCCCNS(=O)(=O)c3cccc(F)c3)c2)c1 | No
COC(=O)c1ccc(Cn2cnc3c(N)ncnc32)cc1 | No
CC1C(/C=N/Nc2ccccc2)C(C#N)(C#N)C1(C#N)C#N (configuration not stated) | No
COc1cc(/C=C/c2cc(O)c3cc(C(C)=O)c(=O)oc3c2)cc2c1O[C@]1(C)CC[C@@H](O)C(C)(C)[C@H]1C2 | No
CCOC(=O)c1c(C)oc2ncnc(N3CCN(C(=S)Nc4ccccc4)CC3)c12 | No
O=C(/C=C/c1ccc(C(F)(F)F)cc1)Nc1ccc(C=C2c3ccccc3C(=O)c3ccccc32)cc1 | No
COc1cc(Nc2cc(C)nc(N3CCN(c4ccnc5cc(Cl)ccc45)CC3)n2)cc(OC)c1 | Yes

----------
- Test system: A498 renal
- experimental_protocol: NCI-60 one-dose screen, 48 h
- protocol_conditions: 10 µM unless noted
About 83,000 compounds went through this panel and 20% of them were active in at least one assay; those are over-represented in the sample as a whole. The source made the active and inactive calls. The calls were made as follows: active = growth percent below 10; inactive = the rest.
Labels: y for active, n for inactive

smiles_code | target_desc | class_label
Cc1[nH]c(-c2ccc3cc[nH]c3c2)c2c1C(=O)CCCC2 | A498 renal | n
CCCc1cc(=O)n2c(C(=O)Nc3cccc(C(=O)OCC)c3)c(C(=O)Nc3ccc(F)cc3)sc2n1 | A498 renal | y
CCOC(=O)c1sc2nc(-c3cccc(O)c3)nc(N3CCOCC3)c2c1C | A498 renal | n
COc1cc(/C=C/C(=O)c2ccc(O)c(CN3CCN(c4cc5c(cc4F)c(=O)c(C(=O)O)cn5C4CC4)CC3)c2)cc(OC)c1OC | A498 renal | n
Cc1cc2c3ccccc3ccc2[n+]2ccccc12 | A498 renal | y
CC[C@@H]1O[C@H](O[C@@H](c2cnc[nH]2)[C@H](NC(=O)c2nc([C@H](CC(N)=O)NC[C@@H](N)C(N)=O)nc(N)c2C)C(=O)N[C@H](C)[C@H](O)[C@H](C)C(=O)N[C@@H](C(=O)NCCc2nc(-c3nc(C(=O)NCCCCN=C(N)N)cs3)cs2)[C@@H](C)O)[C@H](O[C@@H]2O[C@H](CO)[C@H](O)[C@H](OC(N)=O)[C@@H]2O)[C@H](C)[C@@H]1C | A498 renal | n
C#CCOc1ccc2ncnc(Nc3cccc(CNC(=O)CCl)c3)c2c1 | A498 renal | y

----------
- System: OVCAR-8 ovarian
- experimental_protocol: NCI-60 one-dose screen, 48 h
- protocol_conditions: 10 µM unless noted
Compounds without any hit were thinned out: in the full panel of roughly 83,000, 20% have a hit. Activity calls are given as the source filed them. Rule for the calls: active = growth percent below 10; inactive = the rest.
Labels: y for active, n for inactive

compound | class_label
CNC(=O)c1cc(Oc2ccc(NC(=O)Nc3ccc(Cl)c(SC)c3)c(F)c2)ccn1 | n
COc1nc2c(c(=O)n1C)CN(Cc1ccccc1)C=N2 | n
CCNc1ncnc2c1cnn2C1CCCO1 (stereo not given) | n
CSc1ccc(-c2n[nH]nc2-c2cc3ccccc3s2)cc1 | n
COc1ccc(S(=O)(=O)N2CCCCC2)cc1NC(=O)c1[nH]c(C)c2c1CCCCC2=O | n
COC(=O)[C@@H]1CCCN1C(=O)[C@@H]1CCCN1C(=O)[C@H](Cc1ccccc1)NC(=S)Nc1cc(C(F)(F)F)cc(C(F)(F)F)c1 | n
O=C1OCC2=C1C(c1ccncc1)c1cc3c(cc1N2CCO)OCO3 (stereo not given) | n
NCCNc1nc(Nc2ccc(-c3nc4ccccc4[nH]3)cc2)c2cn[nH]c2n1 | n
COc1cccc(/C=C2\SC(=Nc3ccc(NC(C)=O)cc3)NC2=O)c1OC | n
C#CC(F)(F)[C@]1(O)CC[C@H]2[C@@H]3CCC4=CC(=O)CCC4=C3[C@@H](c3ccc(C4CC4)cc3)C[C@@]21C | n
O=C(O)COc1ccc(Cl)cc1C1CCCCC1 | n
COc1ccc(S(=O)(=O)N2CC3(COC3)C2)cc1NC(=O)c1[nH]c(C)c2c1CCCCC2=O | n
CNC(=O)c1cc(Oc2ccc(NC(=O)Nc3ccc(Cl)c(OC(F)(F)F)c3)c(F)c2)ccn1 | n
c1ccc2[nH]c(-c3ccc(Nc4nc(N5CCCC5)nc5[nH]ncc45)cc3)nc2c1 | y
COc1ccc(C2Nc3c(c(C(C)(C)C)nn3-c3ccccc3)C(=O)CS2)cc1 (stereo not given) | n
COc1ccccc1NS(=O)(=O)c1ccc2oc(SC(C)C)nc2c1 | n
COc1ccc2nc(NC(=O)CSc3nnc4n3S(=O)(=O)c3ccccc3N4c3ccccc3)sc2c1 | n
O=C1/C(=C/c2cn(-c3ccccc3)nc2-c2ccccc2)SC(=S)N1CCc1ccccc1 | n
C=C(C)[C@@H]1CC[C@]2(C(=O)OC)CC[C@]3(C)[C@H](CC[C@@H]4[C@@]5(C)C/C(=C/c6ccc(OC)cc6)C(=O)C(C)(C)[C@@H]5CC[C@]43C)[C@@H]12 | n
CC/C=C\C[C@H]1C/C=C2/C(=O)C=C[C@H]2C/C=C\CCCC(=O)O1 | y
C=CC(COC(c1ccccc1)(c1ccccc1)c1ccccc1)N(CC)CC (stereo not given) | n
Fc1ccc2[nH]cc(SSc3c[nH]c4ccc(F)cc34)c2c1 | n
CC/C=C\C[C@H](O)C/C=C1/C(=O)C=C[C@@]1(C)C/C=C\CCCC(=O)OC | n
O=C(Cn1cccc(Nc2ccccc2)c1=O)Nc1ccccc1 | n
O=C1c2cccc3cccc(c23)C(=O)N1CCCCN1CCN(CCCCOc2ccc(-c3nc4ccc(N5CCOCC5)cc4[nH]3)cc2)CC1 | n
CCN1CCC2(CC1)NC(=O)c1c(c3ccc(Cl)c(Cl)c3n1C)C2C#N (stereo not given) | n
Cc1ccc(-c2onc3c(=O)[nH]nc(-c4ccccc4)c23)cc1 | n
CC1C(/C=N/Nc2ccccc2)C(C#N)(C#N)C1(C#N)C#N (stereo not given) | n
CCCCC(=O)OCC1OC(n2cnc3c(=S)nc[nH]c32)C(OC(=O)CCCC)C1OC(=O)CCCC (stereo not given) | y
CN(C)[C@@H]1C(=O)C(C(=O)NCc2nc3[nH]cnc(=S)c3[nH]2)=C(O)[C@@]2(O)C(=O)C3=C(O)c4c(O)cccc4[C@@](C)(O)[C@H]3C[C@@H]12 | y

----------
- System: U251 CNS
- experimental_protocol: NCI-60 one-dose screen, 48 h
- protocol_conditions: 10 µM unless noted
This is part of a sample that, as a whole, favours compounds with a hit. Of some 83,000 tested, about 20% had one in any assay. Active and inactive are the calls of the source. Rule for the calls: active = growth percent below 10; inactive = the rest.
Outcome codes: active, inactive

compound | class_label
c1ccc(Cn2cc(-c3nc4ccccc4s3)c3cccnc32)cc1 | inactive
CCNC(=O)Oc1ccc(/C(=C(\C)c2ccc(Cl)cc2)c2ccc(OCCN(CC)CC)cc2)cc1 | inactive
O=C1c2cc3c(cc2-c2c1c1ccc(F)cc1c(=O)n2CCCNCCO)OCO3 | active
CCCc1cc(=O)n2c(C(=O)Nc3cccc(C(=O)OCC)c3)c(C(=O)Nc3ccc(F)cc3)sc2n1 | inactive
CC(=O)c1nc2ccccc2n1CC(=O)c1cccc(Cl)c1 | inactive
CN(C)C(=S)N=Nc1c(O)[nH]c2ccccc12 | inactive
CC(C)(C)CC(C)(C)c1ccc(OCCOCC[N+](C)(C)Cc2ccccc2)cc1 | active
COc1cc2c(cc1O)CC[C@@H]1[C@@H]2CC[C@]2(C)[C@@H](OCCN(C)C)CC[C@@H]12 | inactive
O=C(Nc1ccccc1Cl)c1ccc(NC2=C(Cl)C(=O)N(C3CCCCC3)C2=O)cc1 | inactive
COc1cc(C2CC(=O)c3ccccc3N2)cc(OC)c1OC (stereo not drawn) | inactive
COc1ccc(NC2=C(Sc3nc(C)cc(C)n3)C(=O)N(Cc3ccccc3)C2=O)cc1Cl | inactive
Cc1ccc(OC(=O)c2ccc(Cl)cc2)cc1 | inactive
C#CC(F)(F)[C@]1(O)CC[C@H]2[C@@H]3CCC4=CC(=O)CCC4=C3[C@@H](c3ccc(C(C)=O)cc3)C[C@@]21C | inactive
